- Target or system: T1, 4H72-bA
- T1 chain: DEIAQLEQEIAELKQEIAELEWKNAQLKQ
- Protocol details: two-hybrid library CCNG1;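 note: natural log of median RNA to DNA barcode read ratio; higher means stronger binding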
Each entry falls into one class according to its interaction score; the ranges are range A: < -0.9; range B: ≥ -0.9 and < 0.3; range C: ≥ 0.3

Binder	Label class
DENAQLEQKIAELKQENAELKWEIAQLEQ [4H1369-bA]	range A
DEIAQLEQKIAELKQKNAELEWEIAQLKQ [4H370-bA]	range C
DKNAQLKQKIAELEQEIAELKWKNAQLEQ [4H3855-bA]	range C
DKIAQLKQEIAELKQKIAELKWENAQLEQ [4H2667-bA]	range C
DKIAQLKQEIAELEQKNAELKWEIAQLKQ [4H2618-bA]	range B
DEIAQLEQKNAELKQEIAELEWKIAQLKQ [4H454-bA]	range B
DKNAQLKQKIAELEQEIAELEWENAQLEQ [4H3843-bA]	range B
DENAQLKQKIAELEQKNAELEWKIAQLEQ [4H1845-bA]	range B
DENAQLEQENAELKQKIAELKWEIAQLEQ [4H1257-bA]	range A
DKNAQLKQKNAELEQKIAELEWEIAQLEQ [4H4001-bA]	range A
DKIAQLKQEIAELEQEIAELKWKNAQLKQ [4H2576-bA]	range C
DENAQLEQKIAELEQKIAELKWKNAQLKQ [4H1328-bA]	range C
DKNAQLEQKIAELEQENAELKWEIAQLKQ [4H3354-bA]	range B
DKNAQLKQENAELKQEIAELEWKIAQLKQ [4H3782-bA]	range A
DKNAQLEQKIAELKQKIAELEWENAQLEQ [4H3427-bA]	range C
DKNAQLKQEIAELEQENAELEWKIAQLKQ [4H3606-bA]	range A
DEIAQLEQEIAELKQEIAELEWKNAQLKQ [4H72-bA]	range C
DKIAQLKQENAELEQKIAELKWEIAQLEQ [4H2729-bA]	range B
DEIAQLKQENAELKQEIAELKWKIAQLEQ [4H717-bA]	range B
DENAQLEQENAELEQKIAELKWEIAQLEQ [4H1193-bA]	range A
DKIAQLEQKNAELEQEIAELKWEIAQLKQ [4H2442-bA]	range A
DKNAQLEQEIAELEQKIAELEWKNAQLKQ [4H3112-bA]	range B
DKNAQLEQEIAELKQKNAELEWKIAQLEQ [4H3189-bA]	range A
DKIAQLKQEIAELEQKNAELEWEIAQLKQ [4H2610-bA]	range B
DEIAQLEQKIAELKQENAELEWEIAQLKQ [4H338-bA]	range B
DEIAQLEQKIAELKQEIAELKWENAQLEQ [4H331-bA]	range C
